- test_description: chemical genetic growth profiling, strain panel (AID 1159580);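 note: tested at 20 µM; growth read once vehicle control cultures reached saturation at 30 °C; 1 = growth at the plate median or of vehicle wells; lower values mean less growth of the strain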
- assay_setup: S. cerevisiae deletion strains, growth OD, locus YGL248W, strain PDE1, hits give low values
The whole screen tested about 5,500 compounds, of which about 2,000 (36%) were called active. Not shown: some 18% with an inconclusive outcome. Some of the results follow.
quantity_name: normalized growth
Give bare numbers.

compound: C[C@]12CC(=O)C3C(CC[C@@H]4C[C@H](O)CC[C@]34C)C1CC[C@]2(O)C(=O)CO (stereo partly drawn)
normalized growth: 1.01
--
compound: CC(CCc1ccccc1)NC(C)C(O)c1ccc(O)cc1 (stereo not drawn)
normalized growth: 0.97

Pending compound:
Exam item: # return recorded normalized growth for entry "CN[C@@H](C)[C@@H](O)c1ccccc1"
Marked response: 1.01

###

Provide the reported normalized growth of each item.
- test_description: chemical genetic growth profiling, strain panel (AID 1159580)
- assay_setup: S. cerevisiae deletion strains, growth OD, locus YCL016C, strain dcc1, hits give low values
Screen size: about 5,500 compounds; about 2,000 (36%) were called active. Inconclusive results (about 18%) are left out. The list shows a part of the results.
Numbers only.

molecule: CC1=C(/C=C/C(C)=C/C=C/C(C)=C/C=C/C=C(C)/C=C/C=C(C)/C=C/C2=C(C)C(=O)CCC2(C)C)C(C)(C)CCC1=O
normalized growth: 1

Field: normalized growth. Fill in for each record below.
1. CC(C(=O)O)c1ccc(-c2ccccc2)c(F)c1 (configuration not stated)
2. COc1ccc2cc([C@H](C)C(=O)O)ccc2c1
3. S=c1nc[nH]c2nc[nH]c12
4. CCOC(=O)[C@H](CCc1ccccc1)N[C@H]1CCc2ccccc2N(CC(=O)O)C1=O
5. c1ccc(N=Nc2ccccc2)cc1

Marked response:
[1.02, 0.993, 1.01, 0.981, 0.982]

Field: normalized growth. Fill in for each record below.
1. CC(=O)NC1SCCC1=O (configuration not stated)
2. CC(=O)O[C@H]1[C@@H]2[C@@H](OC(=O)Cc3ccccc3)[C@@H](C)C[C@]2(OC(C)=O)C(=O)/C(C)=C/[C@H]2[C@H](CC[C@@]13CO3)C2(C)C
3. CS(=O)(=O)c1ccc(C2=C(c3ccccc3)C(=O)OC2)cc1
4. CCCCNc1cc(C(=O)O)cc(S(N)(=O)=O)c1Oc1ccccc1

Marked response:
1: 0.99; 2: 0.989; 3: 0.98; 4: 0.993

Field: normalized growth. Fill in for each record below.
1. C=C1C2CC[C@H]3[C@]4(C)C[C@H](OC5OC(CO)C(OS(=O)(=O)O)C(OS(=O)(=O)O)C5OC(=O)CC(C)C)C[C@@H](C(=O)O)[C@H]4CC[C@]3(C2)[C@H]1O (some centres not stated)
2. Cc1[nH]c(C)c(Cl)c(=O)c1Cl
3. CN1CCc2cc3c(cc2[C@H]1C1OC(=O)c2c1ccc1c2OCO1)OCO3 (some centres not stated)
4. ClC1=C(Cl)C2(Cl)C3C(Cl)C=CC3C1(Cl)C2(Cl)Cl (configuration not stated)
5. CC(=O)OCC(=O)[C@@]1(O)CCC2C3CCC4=CC(=O)CC[C@]4(C)C3C(=O)C[C@@]21C (some centres not stated)

Marked response:
1
0.997
0.981
0.998
1.02

Field: normalized growth. Fill in for each record below.
1. NCC1CCC(C(=O)O)CC1 (configuration not stated)
2. NCCSSCCN
3. COc1cc(NC(C)CCCN)c2ncccc2c1 (configuration not stated)
4. OCCN1C[C@@H](O)[C@@H](O)C(O)C1CO (some centres not stated)
5. CC1=C(C/C=C(\C)CCC[C@H](C)CCC[C@H](C)CCCC(C)C)C(=O)c2ccccc2C1=O
6. CC1=C(CC(=O)O)c2cc(F)ccc2/C1=C\c1ccc(S(C)=O)cc1 (configuration not stated)
7. Cc1cccc(C)c1OCC(C)N (configuration not stated)
8. COP(=O)(OC)OC=C(Cl)Cl

Marked response:
0.993
1
1.02
0.993
0.985
1.01
1.01
1.01

Field: normalized growth. Fill in for each record below.
1. CC1=C(/C=C/C(C)=C/C=C/C(C)=C/C=C/C=C(C)/C=C/C=C(C)/C=C/C(=O)[C@]2(C)C[C@@H](O)CC2(C)C)C(C)(C)C[C@H](O)C1
2. CC(CCc1ccccc1)NC(C)C(O)c1ccc(O)cc1 (configuration not stated)
3. COc1cc2c(cc1OC)[C@@H]1C(=O)c3ccc4c(c3O[C@@H]1CO2)C=CC(C)(C)O4
4. O=C(O)c1cc2ccccc2[nH]1
5. O=C1C=CC(=C(c2ccc(O)cc2)c2ccc(O)cc2)C=C1
6. COc1ccc2c3c1O[C@H]1C[C@@H](O)C=C[C@@]31CCN(C)C2
7. ClC1=C(Cl)C2(Cl)C3C4C=CC(C4)C3C1(Cl)C2(Cl)Cl (configuration not stated)
8. CC(N)CCCC(C)(C)O (configuration not stated)

Marked response:
1. 1.02
2. 1.01
3. 1
4. 0.998
5. 1.01
6. 0.999
7. 0.999
8. 0.989

Exam item: # return recorded normalized growth for entry "O=C(O)c1c2ccccc2cc2ccccc12"
Marked response: 1.01

###

- test_description: chemical genetic growth profiling, strain panel (AID 1159580);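 note: tested at 20 µM; growth read once vehicle control cultures reached saturation at 30 °C; 1 = growth at the plate median or of vehicle wells; lower values mean less growth of the strain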
- assay_setup: S. cerevisiae deletion strains, growth OD, locus YLR085C, strain ARP6, hits give low values
The whole screen tested about 5,500 compounds, of which about 2,000 (36%) were called active. Inconclusive results (about 18%) are left out. Some of the results follow.
quantity_name: normalized growth

compound: O=C1c2cccc3cc([N+](=O)[O-])cc(c23)C(=O)N1CCO
normalized growth: 0.908 (inactive)
--
compound: COc1ccc(CN2C(=O)CSC2c2ccccn2)cc1 (stereo unspecified)
normalized growth: 0.971 (inactive)

Field: normalized growth. Fill in for each record below.
1. COc1ccc(OC)c(S(=O)(=O)Nc2ccc(C#N)cc2)c1
2. COc1ccc(OC)c(S(=O)(=O)Oc2ccc(C#N)cc2)c1
3. CCOc1ccc(/C=C(\C#N)c2cccc(Cl)c2)cc1
4. CCC(=O)Nc1cc(F)ccc1C

Marked response:
["1.04 (inactive)", "0.93 (inactive)", "0.723 (active)", "1.02 (inactive)"]

###

- test_description: chemical genetic growth profiling, strain panel (AID 1159580);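 note: tested at 20 µM; growth read once vehicle control cultures reached saturation at 30 °C; 1 = growth at the plate median or of vehicle wells; lower values mean less growth of the strain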
- assay_setup: S. cerevisiae deletion strains, growth OD, locus YDL040C, strain nat1, hits give low values
The whole screen tested about 5,500 compounds, of which about 2,000 (36%) were called active. Not shown: some 18% with an inconclusive outcome. The list shows a part of the results.
quantity_name: normalized growth
One number for each entry.

In the examples that follow, each entry is paired with its recorded normalized growth.
molecule: CCOC(=O)[C@H](CCc1ccccc1)N[C@H]1CCc2ccccc2N(CC(=O)O)C1=O
assay_value: 0.995
//
molecule: CC1=C(C/C=C(\C)CCC[C@H](C)CCC[C@H](C)CCCC(C)C)C(=O)c2ccccc2C1=O
assay_value: 1
//
molecule: CC1=C(/C=C/C(C)=C/C=C/C(C)=C/C=C/C=C(C)/C=C/C=C(C)/C=C/C(=O)[C@]2(C)C[C@@H](O)CC2(C)C)C(C)(C)C[C@H](O)C1
assay_value: 1.02
//
molecule: CC1=C(/C=C/C(C)=C/C=C/C(C)=C/C=C/C=C(C)/C=C/C=C(C)/C=C/C2=C(C)C(=O)C(O)CC2(C)C)C(C)(C)CC(O)C1=O (stereo unspecified)
assay_value: 1.01
//
molecule: CC(=O)O[C@@H]1C[C@@]2(C)C(CC[C@@H]2C(C)=O)C2CCC3=CC(=O)CC[C@]3(C)C21 (stereo partly specified)
assay_value: 1.01
//
molecule: COc1ccc2c(c1)O[C@@H]1COc3cc(OC)c(OC)cc3[C@@H]1C2=O
assay_value: 0.967
//
molecule: COc1cc(O)c(C(=O)/C=C/c2ccc(O)c(OC)c2)c(OC)c1
assay_value: 0.975
//
molecule: CCOC(=O)c1c(C)cc(O)c(C=O)c1O
assay_value: 0.86

Field: normalized growth. Fill in for each record below.
1. CCOC(=O)C(Cc1ccc(O)cc1)NC(C)=O (stereo unspecified)
2. CCOC(=O)C(C)(C)Oc1ccc(Cl)cc1
3. CCCCCCCCCCCCCCCC[N+](C)(C)C
4. O=C1C=CC(=C(c2ccc(O)cc2)c2ccc(O)cc2)C=C1

Marked response:
1.01
0.979
0.0563
0.991

###

- test_description: chemical genetic growth profiling, strain panel (AID 1159580);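 note: tested at 20 µM; growth read once vehicle control cultures reached saturation at 30 °C; 1 = growth at the plate median or of vehicle wells; lower values mean less growth of the strain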
- assay_setup: S. cerevisiae deletion strains, growth OD, locus YJL095W, strain BCK1, hits give low values
The whole screen tested about 5,500 compounds, of which about 2,000 (36%) were called active. Not shown: some 18% with an inconclusive outcome. This is one part of the list.
quantity_name: normalized growth
Numbers only.

In the examples that follow, each entry is paired with its recorded normalized growth.
smiles_entry: CC(C)(OC(=O)c1ccccc1)[C@@H]1Cc2cc3ccc(=O)oc3cc2O1
assay_value: 0.89

smiles_entry: N#Cc1ccc(S(=O)(=O)Nc2ccccc2Oc2ccc(Cl)cc2Cl)cc1
assay_value: 0.905

Pending molecule:
Exam item: # return recorded normalized growth for entry "CC(C)(C)CN/C(C#N)=C(/C#N)NCc1cccc(Cl)c1"
Marked response: 0.883
